B1: DYRK1B (parent)
chain: RFQDLVLRMLEYEPAARISPLGAL

variants of: B1; test: protein stability index of a GFP-peptide fusion (GPS, HEK-293T) (PSI 1-6); higher = more stable; conditions: c terminus: a fixed tail appended;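 also: lentivirally expressed fusions sorted by FACS into six bins by GFP to DsRed ratio, PSI derived from sequencing read proportions per bin multiplied by bin number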

Alteration: L7M
protein stability index: 2.13
//
Alteration: L5Y
protein stability index: 2.06
//
Alteration: E13H
protein stability index: 1.76
//
Alteration: F2E
protein stability index: 3.27
//
Alteration: L7Q
protein stability index: 1.69
//
Alteration: I18F
protein stability index: 2.3
//
Alteration: L7P
protein stability index: 2.25
//
Alteration: D4N
protein stability index: 1.91
//
Alteration: P14F
protein stability index: 2.87
//
Alteration: A15F
protein stability index: 1.95
//
Alteration: L5E
protein stability index: 1.02
